- target of assay: T1, hIL-4Rα on cells (human, UniProt P24394 26-825)
- T1 sequence: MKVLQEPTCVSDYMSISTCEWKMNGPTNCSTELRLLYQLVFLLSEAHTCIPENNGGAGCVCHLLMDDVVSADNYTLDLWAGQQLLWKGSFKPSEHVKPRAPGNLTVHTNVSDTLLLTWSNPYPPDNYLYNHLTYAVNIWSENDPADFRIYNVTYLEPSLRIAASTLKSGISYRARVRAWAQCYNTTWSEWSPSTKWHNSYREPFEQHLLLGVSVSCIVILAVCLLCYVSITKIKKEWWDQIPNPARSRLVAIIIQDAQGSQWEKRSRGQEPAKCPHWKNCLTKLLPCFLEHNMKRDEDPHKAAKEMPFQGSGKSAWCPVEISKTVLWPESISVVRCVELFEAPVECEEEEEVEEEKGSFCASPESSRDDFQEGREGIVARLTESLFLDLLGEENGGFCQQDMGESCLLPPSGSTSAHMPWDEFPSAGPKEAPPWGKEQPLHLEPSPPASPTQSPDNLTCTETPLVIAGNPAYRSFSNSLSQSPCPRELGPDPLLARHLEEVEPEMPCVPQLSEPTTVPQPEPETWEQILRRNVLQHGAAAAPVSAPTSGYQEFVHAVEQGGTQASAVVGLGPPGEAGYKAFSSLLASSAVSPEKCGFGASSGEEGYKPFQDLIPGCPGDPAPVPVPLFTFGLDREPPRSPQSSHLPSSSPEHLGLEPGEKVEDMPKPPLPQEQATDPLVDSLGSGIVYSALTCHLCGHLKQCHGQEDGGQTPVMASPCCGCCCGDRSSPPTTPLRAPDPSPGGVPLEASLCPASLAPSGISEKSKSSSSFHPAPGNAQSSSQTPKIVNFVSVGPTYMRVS
- measurement description: FACS on HEK293 cells, competitor biotin-hIL-4;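 further: HEK293 cells stably co-expressing hIL-13Rα and hIL-4Rα, stained for 1 h at 4 °C, read-out as mean fluorescence intensity by flow cytometry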
Recorded Relative Blockade of IL-4 Binding IC50 by entry

>>> reading("Construct 5 (mAb414) (antibody, IgG4, V domains shown, VH/VL only) VH: EVQLVESGGGLEQPGGSLRLSCAGSGFTFRDFAMTWVRQAPGKGLEWVSSISGSGDNIYYADSVKGRFTISRDNSKNTLYLQMNSLRAEDTAVYYCAKDRVSITIRPRYYGLDVWGQGTTVTVSS VL: DIVMTQSPLSLPVTPGEPASISCRSSQSLLYSIGKNYVDWYLQKSGQSPQLLIYLGNKRASGVPDRFSGSGSGTDFTLKISRVEAEDVGFYYCMQSLQTPYVFGQGTKLEIK")
"1.01 relative to dupilumab"

// Relative Blockade of IL-4 Binding IC50 value for Construct 22 (mAb430) (antibody, IgG4, V domains shown, VH/VL only) VH: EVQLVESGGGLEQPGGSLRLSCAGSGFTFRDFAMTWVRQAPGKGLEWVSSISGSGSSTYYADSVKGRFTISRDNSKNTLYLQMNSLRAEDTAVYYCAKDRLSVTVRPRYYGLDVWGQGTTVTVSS VL: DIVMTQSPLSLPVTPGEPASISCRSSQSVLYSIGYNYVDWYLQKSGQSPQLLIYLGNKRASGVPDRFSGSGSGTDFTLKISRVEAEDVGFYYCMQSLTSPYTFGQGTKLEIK : 0.829 relative to dupilumab

// recorded Relative Blockade of IL-4 Binding IC50 for Construct 32 (mAb446) (antibody, IgG4, V domains shown, VH/VL only) VH: EVQLVESGGGLEQPGGSLRLSCAGSGFTFRDFAMTWVRQAPGKGLEWVSSVSGDGGNTYYADSVKGRFTISRDNSKNTLYLQMNSLRAEDTAVYYCAKDRLSVTVRPRYYGLDVWGQGTTVTVSS VL: DIVMTQSPLSLPVTPGEPASISCRSSQSLLYSNGYNYLDWYLQKSGQSPQLLIYLSSNRASGVPDRFSGSGSGTDFTLKISRVEAEDVGFYYCMQAFQAPYTFGQGTKLEIK : 1.36 relative to dupilumab

What the record says about Construct 44 (mAb485) (antibody, IgG4, V domains shown, VH/VL only) VH: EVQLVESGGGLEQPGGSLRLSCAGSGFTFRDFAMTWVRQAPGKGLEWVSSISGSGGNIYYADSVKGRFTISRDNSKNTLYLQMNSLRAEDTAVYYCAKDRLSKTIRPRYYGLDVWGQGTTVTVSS VL: DIVMTQSPLSLPVTPGEPASISCRSTQSLLYSIGKNYVDWYLQKSGQSPQLLIYEGNNRASGVPDRFSGSGSGTDFTLKISRVEAEDVGFYYCMQSLTSPYTFGQGTKLEIK : Relative Blockade of IL-4 Binding IC50 is 1.21 relative to dupilumab

These measurements were taken from patent US20260193366A1.
